- Test system: Staph. aureus 209-P
- procedureSummary: Antibacterial activities, MIC
- Assay type: cell-based
- assayContext: Staphylococcus aureus, read-out: MIC
Reported MIC is given for each of the following compounds.
resultType: MIC

{"compound": "CO/N=C(\\C(=O)N[C@@H]1C(=O)N2C(C(=O)[O-])=C(/C=C/C[N+](C)(C)Cc3cscn3)CS[C@H]12)c1nsc(N)n1", "result": "0.2 µg/mL"}
{"compound": "CCO/N=C(\\C(=O)N[C@@H]1C(=O)N2C(C(=O)[O-])=C(/C=C/C[N+](C)(C)CC(N)=O)CS[C@H]12)c1nsc(N)n1", "result": "0.2 µg/mL"}
{"compound": "CO/N=C(\\C(=O)N[C@@H]1C(=O)N2C(C(=O)[O-])=C(/C=C/C[N+]34CCOC(C)(C3)OCC4)CS[C@H]12)c1nsc(N)n1", "result": "0.4 µg/mL"}
{"compound": "CO/N=C(\\C(=O)N[C@@H]1C(=O)N2C(C(=O)[O-])=C(/C=C/C[n+]3ccc4n3CCOC4)CS[C@H]12)c1nsc(N)n1", "result": "0.2 µg/mL"}
{"compound": "CO/N=C(\\C(=O)N[C@@H]1C(=O)N2C(C(=O)[O-])=C(/C=C/C[N+]3(C)CCN(C=N)CC3)CS[C@H]12)c1nsc(N)n1", "result": "0.4 µg/mL"}
{"compound": "CO/N=C(\\C(=O)N[C@@H]1C(=O)N2C(C(=O)[O-])=C(/C=C/C[N+]3(C)CCC[C@H]3CO)CS[C@H]12)c1nsc(N)n1 (stereo partly drawn)", "result": "0.2 µg/mL"}
{"compound": "CO/N=C(\\C(=O)N[C@@H]1C(=O)N2C(C(=O)[O-])=C(/C=C/C[N+]3(CCO)CCC(C(N)=O)CC3)CS[C@H]12)c1nsc(N)n1 (stereo partly drawn)", "result": "0.4 µg/mL"}
{"compound": "CO/N=C(\\C(=O)N[C@@H]1C(=O)N2C(C(=O)[O-])=C(/C=C/C[N+]3(C)CCN(C)CC3)CS[C@H]12)c1nsc(N)n1", "result": "0.2 µg/mL"}
{"compound": "CO/N=C(\\C(=O)N[C@@H]1C(=O)N2C(C(=O)[O-])=C(/C=C/C[N+](C)(C)Cc3cc[nH]n3)CS[C@H]12)c1nsc(N)n1", "result": "0.2 µg/mL"}
{"compound": "CO/N=C(\\C(=O)N[C@@H]1C(=O)N2C(C(=O)[O-])=C(/C=C/C[N+]3(C)CC(O)CC3CO)CS[C@H]12)c1nsc(N)n1 (stereo partly drawn)", "result": "0.4 µg/mL"}
{"compound": "CO/N=C(\\C(=O)N[C@@H]1C(=O)N2C(C(=O)[O-])=C(/C=C/C[N+](C)(C)[C@H](C)C(N)=O)CS[C@H]12)c1nsc(N)n1", "result": "0.2 µg/mL"}
{"compound": "CO/N=C(\\C(=O)N[C@@H]1C(=O)N2C(C(=O)[O-])=C(/C=C/C[N+]3(C)CCCN3C)CS[C@H]12)c1nsc(N)n1 (single isomer, unassigned)", "result": "0.1 µg/mL"}

// data source = patent US5373000A
